molecular target: fusion protein PRR
Sequence (chain, as listed by the source): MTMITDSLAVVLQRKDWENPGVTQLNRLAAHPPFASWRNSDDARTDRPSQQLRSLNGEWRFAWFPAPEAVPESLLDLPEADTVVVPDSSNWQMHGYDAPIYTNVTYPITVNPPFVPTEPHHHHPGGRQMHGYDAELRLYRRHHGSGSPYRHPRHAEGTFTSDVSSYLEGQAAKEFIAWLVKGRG

Protein	relative cleavage efficiency
OmpT protease variant OmpT D97P (protein) STETLSFTPDNINADISLGTLSGKTKERVYLAEEGGRKVSQLDWKFNNAAIIKGAINWDLMPQISIGAAGWTTLGSRGGNMVDQDWMDSSNPGTWTPESRHPDTQLNYANEFDLNIKGWLLNEPNYRLGLMAGYQESRYSFTARGGSYIYSSEEGFRDDIGSFPNGERAIGYKQRFKMPYIGLTGSYRYEDFELGGTFKYSGWVESSDNDEHYDPGKRITYRSKVKDQNYYSVAVNAGYYVTPNAKVYVEGAWNRVTNKKGNTSLYDHNNNTSDYSKNGAGIENYNFITTAGLKYTF	less than 3.0%
OmpT protease variant OmpT D97H (protein) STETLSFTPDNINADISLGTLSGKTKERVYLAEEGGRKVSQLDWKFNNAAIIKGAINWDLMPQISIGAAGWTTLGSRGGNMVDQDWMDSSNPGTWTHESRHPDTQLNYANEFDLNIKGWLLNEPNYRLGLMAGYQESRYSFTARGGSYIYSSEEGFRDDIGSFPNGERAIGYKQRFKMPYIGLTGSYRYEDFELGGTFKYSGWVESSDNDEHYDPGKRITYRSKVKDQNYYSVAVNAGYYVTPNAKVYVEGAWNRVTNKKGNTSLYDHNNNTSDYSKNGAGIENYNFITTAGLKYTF	4.6%
OmpT protease variant OmpT D97I (protein) STETLSFTPDNINADISLGTLSGKTKERVYLAEEGGRKVSQLDWKFNNAAIIKGAINWDLMPQISIGAAGWTTLGSRGGNMVDQDWMDSSNPGTWTIESRHPDTQLNYANEFDLNIKGWLLNEPNYRLGLMAGYQESRYSFTARGGSYIYSSEEGFRDDIGSFPNGERAIGYKQRFKMPYIGLTGSYRYEDFELGGTFKYSGWVESSDNDEHYDPGKRITYRSKVKDQNYYSVAVNAGYYVTPNAKVYVEGAWNRVTNKKGNTSLYDHNNNTSDYSKNGAGIENYNFITTAGLKYTF	less than 3.0%
OmpT protease variant OmpT D97A (protein) STETLSFTPDNINADISLGTLSGKTKERVYLAEEGGRKVSQLDWKFNNAAIIKGAINWDLMPQISIGAAGWTTLGSRGGNMVDQDWMDSSNPGTWTAESRHPDTQLNYANEFDLNIKGWLLNEPNYRLGLMAGYQESRYSFTARGGSYIYSSEEGFRDDIGSFPNGERAIGYKQRFKMPYIGLTGSYRYEDFELGGTFKYSGWVESSDNDEHYDPGKRITYRSKVKDQNYYSVAVNAGYYVTPNAKVYVEGAWNRVTNKKGNTSLYDHNNNTSDYSKNGAGIENYNFITTAGLKYTF	< 3%
